// data source = patent US20070036799A1

Biological target: T1, FcγRIIB-Fc fusion protein (soluble dimeric FcγRIIB) (human, UniProt P31994 43-217)
T1 construct: extracellular domain; the suffix agl in 2bfcagl is not explained; also called FcRIIB-Fc; FcγRIIB-G2; not shown: hinge-CH2-CH3 domain of human IgG2
T1 sequence (looked up): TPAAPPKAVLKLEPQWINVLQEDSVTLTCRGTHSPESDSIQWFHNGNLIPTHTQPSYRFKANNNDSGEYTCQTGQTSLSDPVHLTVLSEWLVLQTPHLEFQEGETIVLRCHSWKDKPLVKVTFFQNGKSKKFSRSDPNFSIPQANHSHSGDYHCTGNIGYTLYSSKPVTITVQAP
Test: SPR
pKd: −log10 of the molar value.

{"columns": ["binder", "pKd"],
 "data": [
  ["ch4-4-20 K334E, T359N, T366S (antibody) ASTKGPSVFPLAPSSKSTSGGTAALGCLVKDYFPEPVTVSWNSGALTSGVHTFPAVLQSSGLYSLSSVVTVPSSSLGTQTYICNVNHKPSNTKVDKKVEPKSCDKTHTCPPCPAPELLGGPSVFLFPPKPKDTLMISRTPEVTCVVVDVSHEDPEVKFNWYVDGVEVHNAKTKPREEQYNSTYRVVSVLTVLHQDWLNGKEYKCKVSNKALPAPIEETISKAKGQPREPQVYTLPPSRDELNKNQVSLSCLVKGFYPSDIAVEWESNGQPENNYKTTPPVLDSDGSFFLYSKLTVDKSRWQQGNVFSCSVMHEALHNHYTQKSLSLSPGK", 7.14],
  ["ch4-4-20 F243I, V379L, G420V (antibody) ASTKGPSVFPLAPSSKSTSGGTAALGCLVKDYFPEPVTVSWNSGALTSGVHTFPAVLQSSGLYSLSSVVTVPSSSLGTQTYICNVNHKPSNTKVDKKVEPKSCDKTHTCPPCPAPELLGGPSVFLIPPKPKDTLMISRTPEVTCVVVDVSHEDPEVKFNWYVDGVEVHNAKTKPREEQYNSTYRVVSVLTVLHQDWLNGKEYKCKVSNKALPAPIEKTISKAKGQPREPQVYTLPPSRDELTKNQVSLTCLVKGFYPSDIALEWESNGQPENNYKTTPPVLDSDGSFFLYSKLTVDKSRWQQVNVFSCSVMHEALHNHYTQKSLSLSPGK", 7.03],
  ["ch4-4-20 K288N, A330S, P396L (antibody) EPKSCDKTHTCPPCPAPELLGGPSVFLFPPKPKDTLMISRTPEVTCVVVDVSHEDPEVKFNWYVDGVEVHNANTKPREEQYNSTYRVVSVLTVLHQDWLNGKEYKCKVSNKALPSPIEKTISKAKGQPREPQVYTLPPSREEMTKNQVSLTCLVKGFYPSDIAVEWESNGQPENNYKTTPLVLDSDGSFFLYSKLTVDKSRWQQGNVFSCSVMHEALHNHYTQKSLSLSPGK", 7.48]
]}
